For each of the compounds below, state its Total Cell Count.
Tested on: HEK-293T
assay-overview: Multiplex assay against HEK293T
Type: toxicity, cell-based
condition-context: human, 24 h, 1 µM, compound concentration 1 uM, replicate 1
Answers are plain numbers.

Illustrative cases are given below, each with its answer.
COc1cc2ncn(-c3cc(OCc4ccccc4C(F)(F)F)c(C(N)=O)s3)c2cc1OC [GW843682X]
252
C=CC(=O)Nc1cccc(Oc2nc(Nc3ccc(N4CCN(C)CC4)cc3OC)ncc2Cl)c1
379
CC(C)Oc1ccccc1C(=O)Nc1ccccc1C(=O)Nc1cccc(S(=O)(=O)C(F)(F)F)c1
263
Cc1ccc2c(c1)c1c(n2CCc2ccc(C)nc2)CCN(C)C1 [LATREPIRDINE]
276

## Input Form field - read-out: Total Cell Count; system: HEK-293T; submitted item: O=c1[nH]c2ccccc2n1C1CCN(Cc2ccc(-c3[nH]c4cc5ncnc5cc4nc3-c3ccccc3)cc2)CC1
## Output 776
